Each entry below carries its recorded EC50.
# test system: PBP3 from Escherichia coli (Escherichia coli)
# Construct: made in house
# assay overview: Fluorescence polarization competition binding assay with Bocillin-FL
# Experimental: To determine the ability of boronic acid-based test PBP inhibitors to bind Penicillin Binding Proteins (PBPs), Bocillin-FL (fluorescently-labeled penicillin V; ThermoFisher Scientific) was used in a fluorescence polarization (FP) competition binding assay to assess boronic acid PBP inhibitor binding to PBP3 from Escherichia coli. […] FP was measured immediately upon addition of PBP3 (Ex, Em), using a Cytation3 (BioTek) microplate reader and measured continuously for 60 minutes. […]

[
  {
    "compound": "Nc1nc(C(NC(=O)N2CCNC2=O)C(=O)N[C@H]2Cc3cccc(C(=O)O)c3OB2O)cs1 (stereo partly shown) [Example 19]",
    "EC50": "30 to 500 µM"
  },
  {
    "compound": "CCN1CCN(C(=O)NC(C(=O)N[C@H]2Cc3cccc(C(=O)O)c3OB2O)c2csc(N)n2)CC1=O (stereo partly shown) [Example 62]",
    "EC50": "30 to 500 µM"
  },
  {
    "compound": "CC(C)CN1CCN(C(=O)NC(C(=O)N[C@H]2Cc3cccc(C(=O)O)c3OB2O)c2csc(N)n2)C(=O)C1=O (stereo partly shown) [Example 66]",
    "EC50": "30 to 500 µM"
  },
  {
    "compound": "COCCN1CCN(C(=O)NC(C(=O)N[C@H]2Cc3cccc(C(=O)O)c3OB2O)c2csc(N)n2)C(=O)C1=O (stereo partly shown) [Example 61]",
    "EC50": "< 30 µM"
  },
  {
    "compound": "CCN1CCN(C(=O)N[C@H](C(=O)N[C@H]2Cc3cccc(C(=O)O)c3OB2O)[C@H](O)CO)C(=O)C1=O [Example 73]",
    "EC50": "> 500 µM"
  },
  {
    "compound": "CCCCN1CCN(C(=O)NC(C(=O)N[C@H]2Cc3cccc(C(=O)O)c3OB2O)c2csc(N)n2)C(=O)C1=O (stereo partly shown) [Example 53]",
    "EC50": "< 30 µM"
  },
  {
    "compound": "CCN1CCN(CC(=O)NC(C(=O)N[C@H]2Cc3cccc(C(=O)O)c3OB2O)c2csc(N)n2)C(=O)C1=O (stereo partly shown) [Example 45]",
    "EC50": "30 to 500 µM"
  }
]

---

Listed here: items and their measured MIC.
# Test system: E. coli DH5α/pLBII
# assay overview: Broth microdilution MIC assay, empty vector control strain
# Format: cell-based
# particulars: Escherichia coli, read-out: E. coli DH5α/pLBII Microbiological Activity (MIC)
metric: MIC

[
  {
    "compound": "COc1ccc(C(=O)NC(C(=O)N[C@H]2Cc3cccc(C(=O)O)c3OB2O)c2csc(N)n2)c(=O)[nH]1 (stereo partly shown)",
    "reported measurement": "128 to 256 µg/mL"
  },
  {
    "compound": "Nc1nc(C(NC(=O)N2CCCN(O)S2(=O)=O)C(=O)N[C@H]2Cc3cccc(C(=O)O)c3OB2O)cs1 (stereo partly shown)",
    "reported measurement": "32 to 64 µg/mL"
  },
  {
    "compound": "CCN1CCN(C(=O)NC(C(=O)N[C@H]2Cc3cc(O)cc(C(=O)O)c3OB2O)c2csc(N)n2)C(=O)C1=O (stereo partly shown)",
    "reported measurement": "32 to 64 µg/mL"
  },
  {
    "compound": "CCN1C(=O)CN(C(=O)NC(C(=O)N[C@H]2Cc3cccc(C(=O)O)c3OB2O)c2csc(N)n2)CC1=O (stereo partly shown)",
    "reported measurement": "128 to 256 µg/mL"
  }
]

---

# test system: PBP3 from Escherichia coli (Escherichia coli, UniProt P0AD68)
# Construct: made in house
# Sequence (P0AD68 1-577): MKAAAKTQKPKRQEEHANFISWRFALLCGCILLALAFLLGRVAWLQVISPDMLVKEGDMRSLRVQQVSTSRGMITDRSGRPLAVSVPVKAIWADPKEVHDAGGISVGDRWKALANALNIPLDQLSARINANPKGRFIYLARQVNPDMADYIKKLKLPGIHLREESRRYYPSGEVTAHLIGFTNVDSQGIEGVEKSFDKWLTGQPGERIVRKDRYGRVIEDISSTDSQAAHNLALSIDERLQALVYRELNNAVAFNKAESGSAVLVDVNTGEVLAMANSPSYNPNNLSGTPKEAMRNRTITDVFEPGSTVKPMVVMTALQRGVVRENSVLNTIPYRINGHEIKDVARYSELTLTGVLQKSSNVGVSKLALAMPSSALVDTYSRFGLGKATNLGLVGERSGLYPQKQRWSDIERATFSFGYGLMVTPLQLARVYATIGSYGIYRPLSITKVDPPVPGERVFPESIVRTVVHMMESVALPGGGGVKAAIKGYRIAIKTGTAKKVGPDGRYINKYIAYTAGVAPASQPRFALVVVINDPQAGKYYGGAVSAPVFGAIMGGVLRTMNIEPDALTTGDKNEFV
# assay overview: Fluorescence polarization competition binding assay with Bocillin-FL
# Method: To determine the ability of boronic acid-based test PBP inhibitors to bind Penicillin Binding Proteins (PBPs), Bocillin-FL (fluorescently-labeled penicillin V; ThermoFisher Scientific) was used in a fluorescence polarization (FP) competition binding assay to assess boronic acid PBP inhibitor binding to PBP3 from Escherichia coli. […] FP was measured immediately upon addition of PBP3 (Ex, Em), using a Cytation3 (BioTek) microplate reader and measured continuously for 60 minutes. […]
pEC50: −log10 of the molar value.

[
  {
    "compound": "CCN1CCN(C(=O)N[C@H](CCC(N)=O)C(=O)N[C@H]2Cc3cccc(C(=O)O)c3OB2O)C(=O)C1=O",
    "pEC50": "< 3.30"
  },
  {
    "compound": "CCN1CCN(C(=O)NC(C(=O)N[C@H]2Cc3cc(O)cc(C(=O)O)c3OB2O)c2csc(N)n2)C(=O)C1=O (stereo partly shown)",
    "pEC50": "3.30 to 4.52"
  },
  {
    "compound": "Nc1nc(C(NC(=O)N2CCN(Cc3ccccc3)C(=O)C2=O)C(=O)N[C@H]2Cc3cccc(C(=O)O)c3OB2O)cs1 (stereo partly shown)",
    "pEC50": "> 4.52"
  },
  {
    "compound": "CCN1CCN(C(=O)N[C@H](C)C(=O)N[C@H]2Cc3cccc(C(=O)O)c3OB2O)C(=O)C1=O",
    "pEC50": "3.30 to 4.52"
  },
  {
    "compound": "CCC(O)[C@@H](NC(=O)N1CCN(CC)C(=O)C1=O)C(=O)N[C@H]1Cc2cccc(C(=O)O)c2OB1O (single isomer, unassigned)",
    "pEC50": "3.30 to 4.52"
  },
  {
    "compound": "CCN1CCN(C(=O)NCCN2CCN(C(=O)NC(C(=O)N[C@H]3Cc4cccc(C(=O)O)c4OB3O)c3csc(N)n3)C(=O)C2=O)C(=O)C1=O (stereo partly shown)",
    "pEC50": "3.30 to 4.52"
  },
  {
    "compound": "Nc1nc(C(NS(N)(=O)=O)C(=O)N[C@H]2Cc3cccc(C(=O)O)c3OB2O)cs1 (stereo partly shown)",
    "pEC50": "3.30 to 4.52"
  }
]

---

Each entry below lists one item and its recorded EC50 value.
# test system: PBP1a from Escherichia coli (Escherichia coli)
# Construct: made in house
# Sequence (P02918 whole entry): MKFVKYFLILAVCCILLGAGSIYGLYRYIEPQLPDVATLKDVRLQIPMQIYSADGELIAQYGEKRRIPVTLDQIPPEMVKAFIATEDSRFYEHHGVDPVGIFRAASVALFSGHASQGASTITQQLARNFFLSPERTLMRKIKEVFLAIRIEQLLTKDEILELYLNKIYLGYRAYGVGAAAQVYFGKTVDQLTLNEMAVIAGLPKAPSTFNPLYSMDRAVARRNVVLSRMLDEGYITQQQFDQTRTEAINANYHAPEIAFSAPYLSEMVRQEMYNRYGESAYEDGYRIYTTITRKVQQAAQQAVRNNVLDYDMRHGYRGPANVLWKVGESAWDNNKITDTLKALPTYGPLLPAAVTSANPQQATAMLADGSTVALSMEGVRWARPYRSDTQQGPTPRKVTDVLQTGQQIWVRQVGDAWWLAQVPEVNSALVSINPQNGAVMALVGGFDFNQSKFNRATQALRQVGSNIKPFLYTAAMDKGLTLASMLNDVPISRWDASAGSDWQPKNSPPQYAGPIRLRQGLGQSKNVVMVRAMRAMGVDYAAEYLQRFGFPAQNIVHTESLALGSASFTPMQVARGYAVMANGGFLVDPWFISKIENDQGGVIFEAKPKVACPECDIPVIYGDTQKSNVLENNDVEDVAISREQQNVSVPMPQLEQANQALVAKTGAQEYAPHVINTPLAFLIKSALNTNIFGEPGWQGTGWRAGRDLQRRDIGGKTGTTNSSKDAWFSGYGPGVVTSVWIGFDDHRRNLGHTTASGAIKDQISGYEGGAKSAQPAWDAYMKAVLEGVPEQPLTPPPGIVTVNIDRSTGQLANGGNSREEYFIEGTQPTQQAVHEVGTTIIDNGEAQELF
# assay overview: Radioligand competition binding assay with 14C-labeled boronic acid probe (Example 96)
# particulars: 14C-labeled probe 96 at 20 μM, PBP 0.1 μM; read-out: E. coli K12 PBP1a EC50

[
  {
    "compound": "Nc1nc(C(NS(N)(=O)=O)C(=O)N[C@H]2Cc3cccc(C(=O)O)c3OB2O)cs1 (stereo partly shown)",
    "EC50": "< 10 µM"
  },
  {
    "compound": "CCC(O)[C@@H](NC(=O)N1CCN(CC)C(=O)C1=O)C(=O)N[C@H]1Cc2cccc(C(=O)O)c2OB1O (single isomer, unassigned)",
    "EC50": "< 10 µM"
  },
  {
    "compound": "Nc1nc(C(=O)NC(C(=O)N[C@H]2Cc3cccc(C(=O)O)c3OB2O)c2csc(N)n2)cs1 (stereo partly shown)",
    "EC50": "> 100 µM"
  },
  {
    "compound": "CCN1CCN(C(=O)N[C@@H](C(=O)N[C@H]2Cc3cccc(C(=O)O)c3OB2O)[C@@H](C)O)C(=O)C1=O",
    "EC50": "< 10 µM"
  },
  {
    "compound": "Nc1nc(C(NC(=O)N2CCNC2=O)C(=O)N[C@H]2Cc3cccc(C(=O)O)c3OB2O)cs1 (stereo partly shown)",
    "EC50": "< 10 µM"
  },
  {
    "compound": "CCN1CCN(C(=O)N[C@@H](C(=O)N[C@H]2Cc3cccc(C(=O)O)c3OB2O)[C@H](C)O)C(=O)C1=O",
    "EC50": "< 10 µM"
  },
  {
    "compound": "CN1CCN(C(=O)NC(C(=O)N[C@H]2Cc3cccc(C(=O)O)c3OB2O)c2csc(N)n2)C(=O)C1=O (stereo partly shown)",
    "EC50": "> 100 µM"
  }
]

---

Heads up, these compounds all have MIC values measured for hyper-permeable E. coli 901C.
metric: MIC

[
  {
    "compound": "Nc1nc(C(NC(=O)NCCC(=O)O)C(=O)N[C@H]2Cc3cccc(C(=O)O)c3OB2O)cs1 (stereo partly drawn)",
    "metric": "MIC",
    "reported measurement": "64 to 128 µg/mL"
  },
  {
    "compound": "CCCN1CCN(C(=O)NC(C(=O)N[C@H]2Cc3cccc(C(=O)O)c3OB2O)c2csc(NC(=O)OCc3ccccc3)n2)C(=O)C1=O (stereo partly drawn)",
    "metric": "MIC",
    "reported measurement": "< 64 µg/mL"
  },
  {
    "compound": "NCC1CCN(C(=O)NC(C(=O)N[C@H]2Cc3cccc(C(=O)O)c3OB2O)c2csc(N)n2)CC1 (stereo partly drawn)",
    "metric": "MIC",
    "reported measurement": "< 64 µg/mL"
  },
  {
    "compound": "CCN1CCN(C(=O)N[C@@H](C(=O)N[C@H]2Cc3cccc(C(=O)O)c3OB2O)[C@H](C)O)C(=O)C1=O",
    "metric": "MIC",
    "reported measurement": "< 64 µg/mL"
  },
  {
    "compound": "CCN1CCN(C(=O)NC(C(=O)N[C@H]2Cc3cccc(C(=O)O)c3OB2O)C(C)c2ccccc2)C(=O)C1=O (stereo partly drawn)",
    "metric": "MIC",
    "reported measurement": "< 64 µg/mL"
  },
  {
    "compound": "Nc1nc(C(NC(=O)Cc2ncccn2)C(=O)N[C@H]2Cc3cccc(C(=O)O)c3OB2O)cs1 (stereo partly drawn)",
    "metric": "MIC",
    "reported measurement": "64 to 128 µg/mL"
  },
  {
    "compound": "Nc1nc(CC(=O)NC(C(=O)N[C@H]2Cc3cccc(C(=O)O)c3OB2O)c2csc(N)n2)cs1 (stereo partly drawn)",
    "metric": "MIC",
    "reported measurement": "< 64 µg/mL"
  },
  {
    "compound": "CC(C)N1CCN(C(=O)NC(C(=O)N[C@H]2Cc3cccc(C(=O)O)c3OB2O)c2csc(N)n2)C(=O)C1=O (stereo partly drawn)",
    "metric": "MIC",
    "reported measurement": "< 64 µg/mL"
  },
  {
    "compound": "Nc1nc(C(NC(=O)N2CCN(O)C(=O)C2=O)C(=O)N[C@H]2Cc3cccc(C(=O)O)c3OB2O)cs1 (stereo partly drawn)",
    "metric": "MIC",
    "reported measurement": "< 64 µg/mL"
  },
  {
    "compound": "Nc1nc(C(NS(=O)(=O)N2CCOCC2)C(=O)N[C@H]2Cc3cccc(C(=O)O)c3OB2O)cs1 (stereo partly drawn)",
    "metric": "MIC",
    "reported measurement": "< 64 µg/mL"
  },
  {
    "compound": "Nc1nc(C(NC(=O)CO)C(=O)N[C@H]2Cc3cccc(C(=O)O)c3OB2O)cs1 (stereo partly drawn)",
    "metric": "MIC",
    "reported measurement": "< 64 µg/mL"
  },
  {
    "compound": "N[C@H](C(=O)N[C@H]1Cc2cccc(C(=O)O)c2OB1O)c1ccc(O)cc1",
    "metric": "MIC",
    "reported measurement": "> 128 µg/mL"
  },
  {
    "compound": "Nc1nc([C@@H](N)C(=O)N[C@H]2Cc3cccc(C(=O)O)c3OB2O)cs1",
    "metric": "MIC",
    "reported measurement": "> 128 µg/mL"
  },
  {
    "compound": "Nc1nc(C(NC(=O)N2CCN(CCO)C(=O)C2=O)C(=O)N[C@H]2Cc3cccc(C(=O)O)c3OB2O)cs1 (stereo partly drawn)",
    "metric": "MIC",
    "reported measurement": "< 64 µg/mL"
  },
  {
    "compound": "Nc1nc(C(NC(=O)Nc2cccnc2)C(=O)N[C@H]2Cc3cccc(C(=O)O)c3OB2O)cs1 (stereo partly drawn)",
    "metric": "MIC",
    "reported measurement": "64 to 128 µg/mL"
  }
]
